Test Summary: Oral bioavailability in cynomolgus monkey at 0.5 mg/kg, po
Assay type: ADME, organism-based, Macaca fascicularis
Conditions: in vivo
Measurement Kind: bioavailability (%)
Output spec: scalar in %, unitless text.

Item CO[C@H]1C[C@@H](CO[C@H]2CC[C@H](C(=O)O)CC2)N(C(=O)Cc2cc(Cl)c(NC(=O)c3cn(C)c4ccccc34)cc2Cl)C1 has what recorded bioavailability?
68

---

Test Summary: Volume of distribution at steady state in Sprague-Dawley rat at 1 mg/kg, iv
Type: ADME, organism-based
Set-up: dose 1 mg/kg, route intravenous
Conditions: in vivo, read-out: Vdss
Measurement Kind: Vd (L/kg)
Output spec: scalar in L/kg, unitless text.

Item Cn1cc(C(=O)Nc2cc(F)c(CC(=O)N3C[C@@H](F)C[C@H]3CO[C@H]3CC[C@H](C(=O)O)CC3)cc2Cl)c2ccccc21 has what recorded Vd?
0.153

Item CO[C@H]1C[C@@H](CO[C@H]2CC[C@H](C(=O)O)CC2)N(C(=O)Cc2cc(Cl)c(NC(=O)c3cn(C)c4ccccc34)cc2Cl)C1 has what recorded Vd?
1.22

Item O=C(Nc1ccc(CC(=O)N2C[C@@H](F)C[C@H]2CO[C@H]2CC[C@H](C(=O)O)CC2)cc1Cl)c1c[nH]c2ccccc12 has what recorded Vd?
0.668

Item Cn1cc(C(=O)Nc2ccc(CC(=O)N3C[C@@H](F)C[C@H]3CO[C@H]3CC[C@H](C(=O)O)CC3)cc2Cl)c2ccccc21 has what recorded Vd?
0.139

---

Measured Target: Integrin alpha-4/beta-1 (Homo sapiens, UniProt P05556+P13612)
Sequence (P05556 whole entry): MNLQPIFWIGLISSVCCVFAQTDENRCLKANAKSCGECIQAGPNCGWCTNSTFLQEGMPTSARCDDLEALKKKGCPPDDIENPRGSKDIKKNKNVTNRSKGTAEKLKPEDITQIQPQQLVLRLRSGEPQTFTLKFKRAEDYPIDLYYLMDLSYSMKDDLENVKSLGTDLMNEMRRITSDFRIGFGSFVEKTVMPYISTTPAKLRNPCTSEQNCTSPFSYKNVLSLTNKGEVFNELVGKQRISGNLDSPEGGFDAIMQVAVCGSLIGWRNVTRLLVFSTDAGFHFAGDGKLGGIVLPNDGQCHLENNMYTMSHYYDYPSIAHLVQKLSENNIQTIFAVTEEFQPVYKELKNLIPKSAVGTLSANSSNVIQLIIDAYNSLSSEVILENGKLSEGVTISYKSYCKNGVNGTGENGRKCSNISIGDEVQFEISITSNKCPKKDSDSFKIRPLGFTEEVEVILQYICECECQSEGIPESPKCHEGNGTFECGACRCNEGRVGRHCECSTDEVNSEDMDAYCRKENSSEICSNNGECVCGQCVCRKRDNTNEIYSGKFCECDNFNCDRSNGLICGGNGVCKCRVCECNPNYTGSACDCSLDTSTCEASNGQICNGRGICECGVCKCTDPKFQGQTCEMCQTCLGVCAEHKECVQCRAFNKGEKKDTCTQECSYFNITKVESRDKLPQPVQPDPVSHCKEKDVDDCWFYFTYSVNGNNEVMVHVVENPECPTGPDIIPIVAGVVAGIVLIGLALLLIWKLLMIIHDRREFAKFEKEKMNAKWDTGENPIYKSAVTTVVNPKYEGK
Sequence (P13612 whole entry): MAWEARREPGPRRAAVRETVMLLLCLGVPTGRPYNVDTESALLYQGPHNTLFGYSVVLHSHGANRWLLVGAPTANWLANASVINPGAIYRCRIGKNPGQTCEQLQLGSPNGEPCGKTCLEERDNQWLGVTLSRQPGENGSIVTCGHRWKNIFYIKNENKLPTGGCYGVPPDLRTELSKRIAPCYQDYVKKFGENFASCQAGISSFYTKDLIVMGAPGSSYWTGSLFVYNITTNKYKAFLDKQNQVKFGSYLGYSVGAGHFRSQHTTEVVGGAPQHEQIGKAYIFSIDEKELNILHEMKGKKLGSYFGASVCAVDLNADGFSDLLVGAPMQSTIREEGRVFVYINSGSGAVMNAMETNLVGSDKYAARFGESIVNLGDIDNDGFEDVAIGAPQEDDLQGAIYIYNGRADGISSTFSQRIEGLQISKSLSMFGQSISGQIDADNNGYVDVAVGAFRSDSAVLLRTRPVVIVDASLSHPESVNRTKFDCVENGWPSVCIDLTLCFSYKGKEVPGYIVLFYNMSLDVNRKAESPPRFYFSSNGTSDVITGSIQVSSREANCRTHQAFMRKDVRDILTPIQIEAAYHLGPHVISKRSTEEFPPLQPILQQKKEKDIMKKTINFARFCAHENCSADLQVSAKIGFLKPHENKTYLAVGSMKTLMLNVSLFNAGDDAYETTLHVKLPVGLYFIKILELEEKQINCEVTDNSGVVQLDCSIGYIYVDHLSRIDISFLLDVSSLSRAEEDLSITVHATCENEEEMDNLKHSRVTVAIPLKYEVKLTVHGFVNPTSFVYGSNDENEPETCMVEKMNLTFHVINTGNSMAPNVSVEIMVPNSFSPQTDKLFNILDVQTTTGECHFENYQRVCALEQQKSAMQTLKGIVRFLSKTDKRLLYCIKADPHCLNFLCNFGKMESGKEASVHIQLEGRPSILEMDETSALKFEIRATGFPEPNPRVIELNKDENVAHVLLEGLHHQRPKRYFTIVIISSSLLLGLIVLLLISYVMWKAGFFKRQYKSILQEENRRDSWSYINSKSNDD
Test Summary: Inhibition of europium labeled human VCAM1/Fc chimera binding to human VLA-4 alpha-4-beta-1 expressed in Chinese hamster 4B4 cells by fluorimetric assay
Assay type: cell-based
pIC50: −log10 of the molar value.
pIC50 vs 8: at or above is Yes, below is No.

Could you verify whether the entry O=C(Cc1ccc(Nc2nc3cccc(F)c3o2)c(Cl)c1)N1C[C@@H](F)C[C@H]1CO[C@H]1CC[C@H](C(=O)O)CC1 shows pIC50 of no less than 8?
No

Could you verify whether the entry CCn1cc(C(=O)Nc2ccc(CC(=O)N3C[C@@H](F)C[C@H]3CO[C@H]3CC[C@H](C(=O)O)CC3)cc2Cl)c2ccccc21 shows pIC50 of no less than 8?
No

Could you verify whether the entry Cc1ccc(F)cc1Nc1nc2ccc(CC(=O)N3C[C@@H](F)C[C@H]3CO[C@H]3CC[C@H](C(=O)O)CC3)cc2o1 shows pIC50 of no less than 8?
Yes

Could you verify whether the entry Cn1cc(C(=O)Nc2cc(Cl)c(CC(=O)N3C[C@@H](F)C[C@H]3CO[C@H]3CC[C@H](C(=O)O)CC3)cc2Cl)c2ccccc21 shows pIC50 of no less than 8?
Yes

Could you verify whether the entry Cn1cc(C(=O)Nc2cc(F)c(CC(=O)N3C[C@@H](F)C[C@H]3CO[C@H]3CC[C@H](C(=O)O)CC3)cc2Cl)c2ccccc21 shows pIC50 of no less than 8?
Yes

Could you verify whether the entry CO[C@H]1C[C@@H](CO[C@H]2CC[C@H](C(=O)O)CC2)N(C(=O)Cc2cc(Cl)c(NC(=O)c3cn(C)c4ccccc34)cc2Cl)C1 shows pIC50 of no less than 8?
Yes

Could you verify whether the entry CO[C@H]1C[C@@H](CO[C@H]2CC[C@H](C(=O)O)CC2)N(C(=O)Cc2cc(Cl)c(NC(=O)c3cn(C)c4ccccc34)cc2F)C1 shows pIC50 of no less than 8?
Yes

---

Test Summary: Half life in Sprague-Dawley rat at 1 mg/kg, iv
Assay type: ADME, organism-based
Design: dose 1 mg/kg, route intravenous
Conditions: in vivo
Measurement Kind: half-life
Answer by giving the amount and then stating its unit.

Item Cn1cc(C(=O)Nc2cc(F)c(CC(=O)N3C[C@@H](F)C[C@H]3CO[C@H]3CC[C@H](C(=O)O)CC3)cc2Cl)c2ccccc21 has what recorded half-life?
54 min

Item O=C(Nc1ccc(CC(=O)N2C[C@@H](F)C[C@H]2CO[C@H]2CC[C@H](C(=O)O)CC2)cc1Cl)c1c[nH]c2ccccc12 has what recorded half-life?
12 min

Item CO[C@H]1C[C@@H](CO[C@H]2CC[C@H](C(=O)O)CC2)N(C(=O)Cc2cc(Cl)c(NC(=O)c3cn(C)c4ccccc34)cc2Cl)C1 has what recorded half-life?
60 min

Item Cn1cc(C(=O)Nc2ccc(CC(=O)N3C[C@@H](F)C[C@H]3CO[C@H]3CC[C@H](C(=O)O)CC3)cc2Cl)c2ccccc21 has what recorded half-life?
42 min

---

Test Summary: Cmax in Sprague-Dawley rat at 1 mg/kg, po
Type: ADME, organism-based
Parameters: dose 1 mg/kg, route oral
Conditions: in vivo
Measurement Kind: Cmax (ng/mL)
Output spec: scalar in ng/mL, unitless text.

Item CO[C@H]1C[C@@H](CO[C@H]2CC[C@H](C(=O)O)CC2)N(C(=O)Cc2cc(Cl)c(NC(=O)c3cn(C)c4ccccc34)cc2Cl)C1 has what recorded Cmax?
385

---

Measured Target: Integrin alpha-4/beta-1 (Homo sapiens, UniProt P05556+P13612)
Test Summary: Inhibition of europium labeled human VCAM1/Fc chimera binding to human VLA-4 alpha-4-beta-1 expressed in Chinese hamster 4B4 cells in presence of 3% HSA by fluorimetric assay
Type: cell-based
Measurement Kind: pIC50
# pIC50 is unitless: minus log10 of the molar concentration; print number only

Item O=C(Nc1cc(F)c(CC(=O)N2C[C@@H](F)C[C@H]2CO[C@H]2CC[C@H](C(=O)O)CC2)cc1Cl)c1nsc2ccccc12 has what recorded pIC50?
6.75

Item Cc1ccc(F)cc1Nc1nc2ccc(CC(=O)N3C[C@@H](F)C[C@H]3CO[C@H]3CC[C@H](C(=O)O)CC3)cc2o1 has what recorded pIC50?
6.88

Item O=C(Cc1ccc(Nc2nc3ccccc3o2)c(Cl)c1)N1C[C@@H](F)C[C@H]1CO[C@H]1CC[C@H](C(=O)O)CC1 has what recorded pIC50?
6.86

Item Cc1ccccc1Nc1nc2ccc(CC(=O)N3C[C@@H](F)C[C@H]3CO[C@H]3CC[C@H](C(=O)O)CC3)c(F)c2o1 has what recorded pIC50?
7.15

Item Cn1cc(C(=O)Nc2cc(Cl)c(CC(=O)N3C[C@@H](O)C[C@H]3CO[C@H]3CC[C@H](C(=O)O)CC3)cc2Cl)c2ccccc21 has what recorded pIC50?
7.15

---

Measured Target: Integrin alpha-4/beta-1 (Homo sapiens, UniProt P05556+P13612)
Test Summary: Inhibition of europium labeled human VCAM1/Fc chimera binding to human VLA-4 alpha-4-beta-1 expressed in Chinese hamster 4B4 cells by fluorimetric assay
Assay type: cell-based
Measurement Kind: pIC50
# pIC50 is unitless: minus log10 of the molar concentration; print number only

Item O=C(Cc1ccc(Nc2nc3cc(F)ccc3o2)c(Cl)c1)N1C[C@@H](F)C[C@H]1CO[C@H]1CC[C@H](C(=O)O)CC1 has what recorded pIC50?
8.14

Item Cc1cccc2oc(Nc3ccc(CC(=O)N4C[C@@H](F)C[C@H]4CO[C@H]4CC[C@H](C(=O)O)CC4)cc3Cl)nc12 has what recorded pIC50?
7.92

Item O=C(Nc1ccc(CC(=O)N2C[C@@H](F)C[C@H]2CO[C@H]2CC[C@H](C(=O)O)CC2)cc1Cl)c1nccc2ccccc12 has what recorded pIC50?
7.85

Item O=C(Nc1cc(F)c(CC(=O)N2C[C@@H](F)C[C@H]2CO[C@H]2CC[C@H](C(=O)O)CC2)cc1Cl)c1nsc2ccccc12 has what recorded pIC50?
8.12
